# assayed target: human GPR131 (Homo sapiens)
# Construct: expressed in transfected cells
# Sequence (Q8TDU6 1-330): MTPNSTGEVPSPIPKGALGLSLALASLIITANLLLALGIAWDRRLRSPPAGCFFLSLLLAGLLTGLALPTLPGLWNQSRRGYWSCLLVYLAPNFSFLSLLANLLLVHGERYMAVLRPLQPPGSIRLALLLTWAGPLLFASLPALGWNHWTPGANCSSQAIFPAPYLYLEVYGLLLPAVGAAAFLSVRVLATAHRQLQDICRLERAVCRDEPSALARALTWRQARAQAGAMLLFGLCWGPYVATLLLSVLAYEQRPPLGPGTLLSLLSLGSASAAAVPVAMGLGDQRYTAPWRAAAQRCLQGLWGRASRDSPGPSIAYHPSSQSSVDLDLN
# assay overview: Stimulation of cAMP in stable cell line expressing human GPR131 (FRET cAMP kit)
# Format: cell-based
# protocol conditions: 0.5 h; 1.1 μM compound, relative to maximal stimulatory activity of lithocholic acid at 3.3 μM; 30 minutes at 37° C.; read-out: Percent Activity @ 1.1 μM (of 3.3 uM LCA) (%)
metric name: activation at 1.1 µM (%)

compound: CN(Cc1ccncc1)C(=O)c1cnc(SCc2cc(Cl)ccc2F)n1-c1ccc(F)cc1 [Compound 616]
scale unit: %
observed value: 100
//
compound: Cc1nn(C)cc1CN(C)C(=O)c1cnc(SCc2c(F)cccc2Cl)n1-c1ccc(Cl)cc1 [Compound 553]
scale unit: %
observed value: 100
//
compound: Cc1nn(C)cc1CNC(=O)c1cnc(SCc2c(F)ccc(F)c2F)n1-c1ccc(F)cc1 [Compound 508]
scale unit: %
observed value: 82
//
compound: Cc1nn(C)cc1CN(C)C(=O)c1cnc(SCc2cc3ccccn3n2)n1-c1ccc(F)cc1 [Compound 632]
scale unit: %
observed value: 100
//
compound: Cc1ccccc1CSc1ncc(C(=O)N(C)Cc2ccncc2)n1-c1ccc(F)cc1 [Compound 562]
scale unit: %
observed value: 82
//
compound: COc1ccc(Cl)c(CSc2ncc(C(=O)N3CCCC3c3ccncc3)n2-c2ccc(F)cc2)c1F (centres unmarked) [Compound 591]
scale unit: %
observed value: 94
//
compound: CN(Cc1ccncc1)C(=O)c1cnc(SCc2ccc(Cl)cc2C(F)(F)F)n1-c1ccc(F)cc1 [Compound 609]
scale unit: %
observed value: 86
//
compound: Cc1nn(C)cc1CN(C)C(=O)c1cnc(CCc2c(F)ccc(F)c2F)n1-c1ccc(F)cc1 [Compound 523]
scale unit: %
observed value: 96
